B1: Osa-1-4 twister ribozyme (parent)
chain: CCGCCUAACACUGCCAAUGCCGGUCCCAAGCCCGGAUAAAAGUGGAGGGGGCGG

Variants of: B1
Test: self-cleavage, relative activity (ratio to wild type); higher = more cleavage; co-transcriptional
Assign class by self-cleavage: not lower than 0.1 means Met; lower than 0.1 means Not met.

# example entries with known answers
INSERT INTO assay_data (mutationcode, labelvalue) VALUES
  ('A7U C52A', 'Met'),
  ('C33G G53A', 'Not met'),
  ('G45U U43G', 'Not met'),
  ('G44U U37C', 'Met');

**Q:** Does the reported self-cleavage for A40C C27U fall at or above the 0.1 mark?
**A:** Not met

**Q:** Does the reported self-cleavage for C32A G48U fall at or above the 0.1 mark?
**A:** Not met

src = the RNAGym collection of RNA variant scans (doi:10.1002/anie.201605470)
